assay: Half life in mouse blood; assay type: ADME, tissue-based
property name: half-life
Number first, unit second: that is the form wanted.

Query: half-life; subject: `O=C(Nc1cccc2cccnc12)c1ccc(N2C(=O)[C@@H]3[C@H](C2=O)[C@@H]2C=C[C@H]3C2)cc1`
1 h

###

assay: Half life in mouse liver S9 fraction; type: ADME, subcellular
property name: half-life (min)
Report as a plain number; the unit min is understood.

If you can, please state the reported half-life value of `O=C(Nc1cccc2cccnc12)c1ccc(N2C(=O)[C@@H]3[C@H](C2=O)[C@@H]2C=C[C@H]3C2)cc1` .
20

Entry source: ChEMBL document CHEMBL1151915
